Each entry below carries its recorded Papp at 2 h, 10 µM.
assay: in vitro
Type: in vitro ADME, canine
condition set: dog, MDCK

Field: example entries. Status: answers known.
O=C(O)c1noc(-c2ccccc2)c1-c1cccc(-c2ccc(O)c(Cl)c2)c1 : 3.3 ×10⁻⁶ cm/s
O=C(O)c1noc(-c2ccccc2)c1-c1cccc(-c2ccc(O)c(F)c2)c1 : 2.7 ×10⁻⁶ cm/s
Cc1cc(-c2cccc(-c3c(C(=O)O)noc3-c3ccccc3)c2)cc(C)c1O : 5.8 ×10⁻⁶ cm/s

Query string: // query Papp at 2 h, 10 µM value for entry O=C(O)c1noc(-c2ccccc2)c1-c1cccc(-c2cc(Cl)c(O)c(Cl)c2)c1
Result string: 0.8 ×10⁻⁶ cm/s

---

test system: hPTP1B (Homo sapiens, UniProt P18031)
Sequence (P18031 whole entry): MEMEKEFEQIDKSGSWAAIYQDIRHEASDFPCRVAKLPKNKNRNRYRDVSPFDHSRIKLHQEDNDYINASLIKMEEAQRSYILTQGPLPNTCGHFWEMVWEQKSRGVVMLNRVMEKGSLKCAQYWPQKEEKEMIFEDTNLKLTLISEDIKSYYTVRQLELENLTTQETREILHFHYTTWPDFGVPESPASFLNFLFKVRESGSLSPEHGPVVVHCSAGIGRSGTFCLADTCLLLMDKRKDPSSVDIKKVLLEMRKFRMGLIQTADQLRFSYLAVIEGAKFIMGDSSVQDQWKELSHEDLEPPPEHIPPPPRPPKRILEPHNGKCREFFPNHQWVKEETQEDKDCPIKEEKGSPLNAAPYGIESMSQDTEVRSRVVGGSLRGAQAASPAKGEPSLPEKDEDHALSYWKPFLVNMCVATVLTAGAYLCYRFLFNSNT
quantity measured: IC50

Query string: # query: IC50 | item Cc1onc(C(=O)O)c1-c1cccc(-c2cc(Cl)c(O)c(Cl)c2)c1 | system: hPTP1B (Homo sapiens, UniProt P18031)
Result string: > 100 µM

---

assay: in vitro
Assay type: in vitro ADME, canine
condition set: dog, MDCK
quantity measured: efflux ratio at 2 h, 10 µM
Just the number.

O=C(O)c1noc(-c2ccccc2)c1-c1cccc(-c2ccc(O)c(Cl)c2)c1 : 0.8

Consider now this further compound.
Query string: Look up efflux ratio at 2 h, 10 µM for this compound: O=C(O)c1noc(-c2ccccc2)c1-c1cccc(-c2ccc(O)c(F)c2)c1
Result string: 0.7

---

assay: Pharmacokinetic evaluation in guinea pigs
Type: in vivo
condition set: male, Durkin Hartley, guinea pig, in vivo, ip, 4 mg/kg, IP, dose mg/kg: 13 4, 5 2.5, 8 1.25, 9 2.5
quantity measured: half-life (h)
Your answer should be a plain number; it is taken to be in h.

Query string: Would you mind telling me what half-life value was observed for Cc1onc(C(=O)O)c1-c1cccc(-c2cc(Cl)c(O)c(Cl)c2)c1 [Compound 13] ?
Result string: 1.4

---

assay: Pharmacokinetic evaluation in guinea pigs
Format: in vivo
condition set: male, Durkin Hartley, guinea pig, in vivo, po, 8 mg/kg, oral, dose mg/kg: 13 8, 5 5, 8 3.5, 9 5
quantity measured: half-life (h)
Write the value in h as a bare number.

Query string: Name the reported half-life value associated with the molecule Cc1onc(C(=O)O)c1-c1cccc(-c2cc(Cl)c(O)c(Cl)c2)c1
Result string: 5

---

assay: physchem
Type: physicochemical
Procedure: C = (CD(t) × VD) + (CA(t) × VA ) % Mass Retention = 1 − (CD(t) × VD) + (CA(t) × VA) […] Following centrifugation to ensure phase separation, the concentration of the compound in both the octanol and buffer phases was measured by LC -UV. The Log D was then calculated as the Log of ratio of the concentration of compound in the octanol phase to that in the […] Briefly, monolayer integrity was measured before the assay was initiated measuring the transepithelial electrical resistance values (Ω). […]
quantity measured: solubility at 24 h

O=C(O)c1noc(-c2ccccc2)c1-c1cccc(-c2ccc(O)c(Cl)c2)c1 [Compound 10] : > 1250 µg/mL
O=C(O)c1noc(-c2ccccc2)c1-c1cccc(-c2cc(Cl)c(O)c(Cl)c2)c1 [Compound 5] : 1180 µg/mL
O=C(O)c1noc(-c2ccccc2)c1-c1cccc(-c2ccc(O)c(F)c2)c1 [Compound 11] : > 1250 µg/mL

Query string: // solubility at 24 h lookup, key: Cc1cc(-c2cccc(-c3c(C(=O)O)noc3-c3ccccc3)c2)cc(C)c1O [Compound 9]
Result string: > 1250 µg/mL

---

# logD listing for each entry below
assay: physchem
Assay type: physicochemical
condition set: pH 7.4
Experimental: C = (CD(t) × VD) + (CA(t) × VA ) % Mass Retention = 1 − (CD(t) × VD) + (CA(t) × VA) […] Following centrifugation to ensure phase separation, the concentration of the compound in both the octanol and buffer phases was measured by LC -UV. The Log D was then calculated as the Log of ratio of the concentration of compound in the octanol phase to that in the […] Briefly, monolayer integrity was measured before the assay was initiated measuring the transepithelial electrical resistance values (Ω). […]
Give a plain numeric answer without units written out.

// solved cases for logD follow
O=C(O)c1noc(-c2ccccc2)c1-c1cccc(-c2cc(Cl)c(O)c(Cl)c2)c1 : 0.84
Cc1cc(-c2cccc(-c3c(C(=O)O)noc3-c3ccccc3)c2)cc(C)c1O : 1.37
O=C(O)c1noc(-c2ccccc2)c1-c1cccc(-c2ccc(O)c(F)c2)c1 : 0.67

Query string: Which logD reading was recorded for the compound O=C(O)c1noc(-c2ccccc2)c1-c1cccc(-c2ccc(O)c(Cl)c2)c1 ?
Result string: 1.3

---

Type: in vitro ADME
condition set: human, microsomes, 1 µM
Method: Data analysis was performed using Excel (Microsoft, USA). Human liver microsomes were commercially obtained (Invitrogen, USA). All microsomes were stored at -80 °C. […] Compound concentrations were determined by LC-MS/MS analysis. The natural log of the percentage of compound remaining was plotted against each time point and the slope determined. The half-life (t1/2) and CLint were calculated using Equations 1 and 2, respectively. […]
quantity measured: HLM CLint (% LBF)
Express your answer in % LBF, writing the number without its unit.

O=C(O)c1noc(-c2ccccc2)c1-c1cccc(-c2ccc(O)c(Cl)c2)c1 [Compound 10] : 33
O=C(O)c1noc(-c2ccccc2)c1-c1cccc(-c2cc(Cl)c(O)c(Cl)c2)c1 [Compound 5] : 31
O=C(O)c1noc(-c2ccccc2)c1-c1cccc(-c2ccc(O)c(F)c2)c1 [Compound 11] : 47.7

# context switch: different compound, same HLM CLint (% LBF)
Query string: Bench note: what HLM CLint (% LBF) did Cc1cc(-c2cccc(-c3c(C(=O)O)noc3-c3ccccc3)c2)cc(C)c1O [Compound 9] show?
Result string: 36.4

---

assay: physchem
Assay type: physicochemical
condition set: pH 7.4
quantity measured: logD
Just the number, please, no unit after it.

Query string: I'd like to know its logD. The compound in question is Cc1onc(C(=O)O)c1-c1cccc(-c2cc(Cl)c(O)c(Cl)c2)c1
Result string: 4

---

test system: MptpB (Mycobacterium tuberculosis)
Sequence (I6WXK4 whole entry, looked up): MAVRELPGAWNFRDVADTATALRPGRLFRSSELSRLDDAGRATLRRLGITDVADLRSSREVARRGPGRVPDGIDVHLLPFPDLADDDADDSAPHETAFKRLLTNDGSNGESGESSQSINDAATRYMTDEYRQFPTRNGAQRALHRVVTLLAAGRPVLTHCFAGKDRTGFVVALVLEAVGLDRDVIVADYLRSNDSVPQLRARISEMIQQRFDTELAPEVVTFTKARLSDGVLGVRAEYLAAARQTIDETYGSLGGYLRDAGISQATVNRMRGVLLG
assay: biochemical
Set-up: species or system M. tuberculosis
condition set: IC50 MptpB
pIC50: −log10 of the molar value.
quantity measured: pIC50

Query string: Please report the recorded pIC50 for O=C(O)c1cc(-c2ccccc2)on1 .
Result string: < 3.30
